- assay_info: Cmax in human at 600 mg/day
- Format: ADME, organism-based
- Design: dose 600 mg/day
- experimental_parameters: plasma

| compound | unit_label | Cmax |
| --- | --- | --- |
| Cc1c(C)c2c(c(C)c1O)CCC(C)(COc1ccc(CC3SC(=O)NC3=O)cc1)O2 (stereo unspecified) | µM | 6.3 |

---

- Tested on: MDA-MB-231
- assay_info: Antiproliferative activity hormone-independent human MDA-MB-231 cells after 24 hrs by luminescent cell viability assay
- Assay type: functional, cell-based
- experimental_parameters: MDA-MB-231, 24 h
pIC50: −log10 of the molar value.
Parameter pIC50: see the listing below.

| molecule | experimental_system | value_operator | pIC50 |
| --- | --- | --- | --- |
| Cc1c(C)c2c(c(C)c1OC(=O)CCC(=O)O)CCC(C)(COc1ccc(/C=C3\SC(=O)NC3=O)cc1)O2 (racemic) | MDA-MB-231 | < | 4.60 |
| Cc1c(C)c2c(c(C)c1OC(=O)CCCCCCCN)CCC(C)(COc1ccc(/C=C3\SC(=O)NC3=O)cc1)O2 (racemic) | MDA-MB-231 | = | 5.30 |
| Cc1c(C)c2c(c(C)c1O)CCC(C)(COc1ccc(/C=C3\SC(=O)NC3=O)cc1)O2 (racemic) | MDA-MB-231 | = | 4.78 |
| Cc1c(C)c2c(c(C)c1O)CCC(C)(COc1ccc(CC3SC(=O)NC3=O)cc1)O2 (centres undefined) | MDA-MB-231 | = | 4.80 |
